- experiment: Pharmacokinetic study after IP administration
- Type: in vivo, female BALB/c mice
- run_conditions: female, BALB/c, mouse, serum; IP 50 or 100 mg/kg, one-compartment model; read-out: Vd/F, apparent volume of distribution

smiles: Cn1c(=O)c2c(nc(NCCc3ccccc3)n2CCCC(=O)NN=Cc2ccccc2O)n(C)c1=O
Vd/F (L/kg): 1.81

----------
- experiment: Pharmacokinetic study after IP administration
- Type: in vivo, female BALB/c mice
- run_conditions: female, BALB/c, mouse, serum; IP 50 or 100 mg/kg, one-compartment model; read-out: ke, elimination rate constant (converted)

compound: Cn1c(=O)c2c(nc(NCCc3ccccc3)n2CCCC(=O)NN=Cc2ccccc2O)n(C)c1=O [GRMS-55]
k el, s⁻¹: 0.00127

----------
- experiment: Pharmacokinetic study after IP administration
- Assay type: in vivo, female BALB/c mice
- run_conditions: female, BALB/c, mouse, serum, ip; read-out: elimination half-life (ln2/ke)
readout_kind: half-life (min)

smiles: Cn1c(=O)c2c(nc(NCCc3ccccc3)n2CCCC(=O)NN=Cc2ccccc2O)n(C)c1=O
readout_kind: half-life
reported: 9.1
